Numbers sourced from ChEMBL document CHEMBL4392848.

# measurementNotes: Inhibition of Escherichia coli LpxC C63A mutant using UDP-3-O-[(R)-3-hydroxymyristoyl]-N-acetylglucosamine as substrate measured after 30 mins by fluorescence based microplate assay
Measured pKi, listed per entry for reference.
Remember, pKi is on a log scale: it is -log10 of the molar concentration.

INSERT INTO assay_data (smilescode, valueobserved) VALUES
  ('O=C(NO)[C@@H]1CCCN1C(=O)c1ccc(C#Cc2ccc(CN3CCOCC3)cc2)cc1', 5.20),
  ('O=C(NO)[C@H]1CCCN1C(=O)c1ccc(C#Cc2ccc(CN3CCOCC3)cc2)cc1', 5.06);

Attention now shifts to the item below.
stdin: I'd like to know its pKi. The molecule in question is "O=C(NO)[C@@H]1C[C@@H](O)CN1C(=O)c1ccc(C#Cc2ccc(CN3CCOCC3)cc2)cc1"
stdout: 5.18

----------
# measurementNotes: Selectivity ratio of IC50 for human MMP8 to IC50 for human MMP2
# Format: ADME
readout: Ratio IC50

stdin: I'd like to know its Ratio IC50. The molecule in question is "O=C(NO)[C@@H]1[C@H](O)[C@H](O)CN1C(=O)c1ccc(C#Cc2ccc(CN3CCOCC3)cc2)cc1"
stdout: 4 to 5

----------
Measured diameter of the inhibition zone (DIZ), listed per entry for reference.
# Tested on: Enterobacter cloacae
# measurementNotes: Antibacterial activity against Enterobacter cloacae assessed as diameter of inhibition zone measured after 24 hrs by agar disc diffusion method
# Format: functional

These recorded examples may help you get a feel for the data.
INSERT INTO measurements (smilescode, readout, valueobserved) VALUES
  ('O=C(NO)[C@H]1[C@H](O)[C@H](O)CN1C(=O)c1ccc(C#Cc2ccc(CN3CCSCC3)cc2)cc1', 'diameter of the inhibition zone (DIZ)', '<6 mm'),
  ('O=C(NO)[C@@H]1C[C@H](O)CN1C(=O)c1ccc(C#Cc2ccc(CN3CCCC3)cc2)cc1', 'diameter of the inhibition zone (DIZ)', '<6 mm'),
  ('N[C@H]1C[C@@H](C(=O)NO)N(C(=O)c2ccc(C#Cc3ccccc3)cc2)C1', 'diameter of the inhibition zone (DIZ)', '7 mm'),
  ('O=C(NO)[C@@H]1C[C@H](O)CN1C(=O)c1ccc(C#Cc2ccc(CN3CCC(O)CC3)cc2)cc1', 'diameter of the inhibition zone (DIZ)', '<6 mm'),
  ('COc1ccc(C#Cc2ccc(C(=O)N3C[C@@H](O)C[C@H]3C(=O)NO)cc2)cc1', 'diameter of the inhibition zone (DIZ)', '8 mm'),
  ('O=C(NO)[C@@H]1CCCN1C(=O)c1ccc(C#Cc2ccc(CN3CCCCC3)cc2)cc1', 'diameter of the inhibition zone (DIZ)', '10 mm'),
  ('O=C(NO)[C@@H]1C[C@H](O)CN1C(=O)c1ccc(C#Cc2ccc(CN3CCCCC3)cc2)cc1', 'diameter of the inhibition zone (DIZ)', '<6 mm'),
  ('Nc1ccc(C#Cc2ccc(C(=O)N3C[C@H](O)C[C@H]3C(=O)NO)cc2)cc1', 'diameter of the inhibition zone (DIZ)', '<6 mm');

Attention now shifts to the item below.
stdin: # value lookup — system Enterobacter cloacae, readout diameter of the inhibition zone (DIZ), item "N[C@H]1C[C@@H](C(=O)NO)N(C(=O)c2ccc(C#Cc3ccc(CN4CCOCC4)cc3)cc2)C1"
stdout: <6 mm

----------
# System: Enterobacter cloacae
# measurementNotes: Antibacterial activity against Enterobacter cloacae assessed as diameter of inhibition zone measured after 24 hrs by agar disc diffusion method
# Type: functional
readout: diameter of the inhibition zone (DIZ) (mm)
Just the number please, in mm, no unit attached.

INSERT INTO measurements (smilescode, valueobserved) VALUES
  ('O=C(NO)[C@@H]1CCCN1C(=O)c1ccc(C#Cc2ccccc2)cc1', 8),
  ('O=C(NO)[C@@H]1CCCN1C(=O)c1ccc(C#Cc2ccc(CN3CCOCC3)cc2)cc1', 13),
  ('O=C(NO)[C@@H]1CCCN1Cc1ccc(C#Cc2ccc(CN3CCSCC3)cc2)cc1', 14);

stdin: I'd like to know its diameter of the inhibition zone (DIZ). The molecule in question is "O=C(NO)[C@@H]1C[C@H](O)CN1C(=O)c1ccc(C#Cc2ccc(CN3CCSCC3)cc2)cc1"
stdout: 14

----------
# Test system: Proteus vulgaris
# measurementNotes: Antibacterial activity against Proteus vulgaris assessed as diameter of inhibition zone measured after 24 hrs by agar disc diffusion method
# Assay type: functional
readout: diameter of the inhibition zone (DIZ)

These recorded examples may help you get a feel for the data.
INSERT INTO assay_data (smilescode, valueobserved) VALUES
  ('O=C(NO)[C@@H]1CCCN1Cc1ccc(C#Cc2ccc(CN3CCOCC3)cc2)cc1', '12 mm'),
  ('O=C(NO)[C@@H]1C[C@H](O)CN1C(=O)c1ccc(C#Cc2ccc(CN3CCOCC3)cc2)cc1', '9 mm'),
  ('Nc1ccc(C#Cc2ccc(C(=O)N3C[C@@H](O)C[C@H]3C(=O)NO)cc2)cc1', '<6 mm');

stdin: # value lookup — system Proteus vulgaris, readout diameter of the inhibition zone (DIZ), item "O=C(NO)[C@@H]1C[C@H](O)CN1C(=O)c1ccc(C#Cc2ccc(CN3CCC(O)CC3)cc2)cc1"
stdout: <6 mm

stdin: # repeat for "O=C(NO)[C@@H]1CCCN1C(=O)c1ccc(C#Cc2ccc(CN3CCOCC3)cc2)cc1"
stdout: 9 mm

stdin: # repeat for "CN(C)c1ccc(C#Cc2ccc(C(=O)N3C[C@H](O)C[C@H]3C(=O)NO)cc2)cc1"
stdout: <6 mm

stdin: # repeat for "Nc1ccc(C#Cc2ccc(C(=O)N3C[C@H](O)C[C@H]3C(=O)NO)cc2)cc1"
stdout: <6 mm

stdin: # repeat for "O=C(NO)[C@@H]1C[C@H](O)CN1C(=O)c1ccc(C#Cc2ccccc2)cc1"
stdout: 7 mm

stdin: # repeat for "CC1(C)O[C@@H]2[C@@H](CN(C(=O)c3ccc(C#Cc4ccc(CN5CCOCC5)cc4)cc3)[C@H]2C(=O)NO)O1"
stdout: <6 mm

stdin: # repeat for "CCCCCc1ccc(C#Cc2ccc(C(=O)N3C[C@@H](O)C[C@H]3C(=O)NO)cc2)cc1"
stdout: 8 mm

stdin: # repeat for "O=C(NO)[C@H]1[C@H](O)[C@H](O)CN1C(=O)c1ccc(C#Cc2ccc(CN3CCSCC3)cc2)cc1"
stdout: <6 mm

stdin: # repeat for "N[C@H]1C[C@@H](C(=O)NO)N(C(=O)c2ccc(C#Cc3ccc(CN4CCOCC4)cc3)cc2)C1"
stdout: <6 mm

stdin: # repeat for "CN(C)c1ccc(C#Cc2ccc(C(=O)N3C[C@@H](O)C[C@H]3C(=O)NO)cc2)cc1"
stdout: <6 mm

stdin: # repeat for "O=C(NO)[C@@H]1CCCN1C(=O)c1ccc(C#Cc2ccc(CN3CCCCC3)cc2)cc1"
stdout: 11 mm

----------
# System: Klebsiella oxytoca
# measurementNotes: Antibacterial activity against Klebsiella oxytoca assessed as diameter of inhibition zone measured after 24 hrs by agar disc diffusion method
# Format: functional
Measured diameter of the inhibition zone (DIZ), listed per entry for reference.
Just the number please, in mm, no unit attached.

These recorded examples may help you get a feel for the data.
INSERT INTO measurements (smilescode, valueobserved) VALUES
  ('CN(C)c1ccc(C#Cc2ccc(C(=O)N3C[C@H](O)C[C@H]3C(=O)NO)cc2)cc1', 8),
  ('O=C(NO)[C@@H]1CCCN1Cc1ccc(C#Cc2ccc(CN3CCSCC3)cc2)cc1', 11),
  ('N[C@H]1C[C@@H](C(=O)NO)N(C(=O)c2ccc(C#Cc3ccc(CN4CCOCC4)cc3)cc2)C1', 13),
  ('Nc1ccc(C#Cc2ccc(C(=O)N3C[C@@H](O)C[C@H]3C(=O)NO)cc2)cc1', 8),
  ('O=C(NO)[C@@H]1CCCN1C(=O)c1ccc(C#Cc2ccc(CN3CCCCC3)cc2)cc1', 9),
  ('CN(C)c1ccc(C#Cc2ccc(C(=O)N3C[C@@H](O)C[C@H]3C(=O)NO)cc2)cc1', 8),
  ('CCCCCc1ccc(C#Cc2ccc(C(=O)N3C[C@@H](O)C[C@H]3C(=O)NO)cc2)cc1', 7),
  ('O=C(NO)[C@@H]1CCCN1Cc1ccc(C#Cc2ccc(CN3CCOCC3)cc2)cc1', 13);

Attention now shifts to the item below.
stdin: I'd like to know its diameter of the inhibition zone (DIZ). The compound in question is "CC1(C)O[C@@H]2[C@@H](CN(C(=O)c3ccc(C#Cc4ccc(CN5CCOCC5)cc4)cc3)[C@H]2C(=O)NO)O1"
stdout: 8

----------
Measured MIC, listed per entry for reference.
# Tested on: Escherichia coli
# measurementNotes: Antibacterial activity against Escherichia coli D22 measured after 20 hrs by microdilution method
# Format: functional
# testParameters: D22, 20 h
Just the number please, in µM, no unit attached.

These recorded examples may help you get a feel for the data.
INSERT INTO results (smilescode, valueobserved) VALUES
  ('O=C(NO)[C@@H]1C[C@@H](O)CN1Cc1ccc(C#Cc2ccc(CN3CCOCC3)cc2)cc1', 8),
  ('O=C(NO)[C@@H]1[C@H](O)[C@H](O)CN1C(=O)c1ccc(C#Cc2ccc(CN3CCOCC3)cc2)cc1', 16),
  ('O=C(NO)[C@@H]1CCCN1C(=O)c1ccc(C#Cc2ccccc2)cc1', 128);

stdin: I'd like to know its MIC. The compound in question is "O=C(NO)[C@@H]1CCCN1C(=O)c1ccc(C#Cc2ccc(CN3CCCCC3)cc2)cc1"
stdout: 128
